Target: IGF-1R (Homo sapiens)
Construct: purchased Upstate Co. 14-465
Sequence (P08069 959-1367 limits assumed): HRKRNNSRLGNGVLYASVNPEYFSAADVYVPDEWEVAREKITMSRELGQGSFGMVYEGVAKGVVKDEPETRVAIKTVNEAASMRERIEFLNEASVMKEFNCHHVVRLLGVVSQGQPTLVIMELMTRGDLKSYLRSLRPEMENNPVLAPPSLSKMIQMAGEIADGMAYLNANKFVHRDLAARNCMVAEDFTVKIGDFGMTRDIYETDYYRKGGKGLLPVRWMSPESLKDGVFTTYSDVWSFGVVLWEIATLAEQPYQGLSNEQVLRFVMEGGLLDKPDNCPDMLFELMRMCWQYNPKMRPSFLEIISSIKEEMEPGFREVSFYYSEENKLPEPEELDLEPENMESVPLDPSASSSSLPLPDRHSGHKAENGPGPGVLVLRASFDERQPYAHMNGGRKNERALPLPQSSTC
Assay: IGF-1R inhibitory activity (kinase reaction, time-resolved fluoroimmunoassay)
Assay type: biochemical
Conditions: IGF-1R active recombinant enzyme, test compound 10 μmol/L
Description: The IGF-1R inhibitory activity was measured in the following manner. As IGF-1R, active recombinant enzyme (Catalog No. 14-465) purchased from Upstate Co., was used. […] 4 times, then reacted with europium-labeled anti-phosphotyrosine antibody, further washed with TBS-T 4 times and then, measured with time-resolved fluoroimmunoassay (excitation wavelength 340 nm, measuring wavelength 615 nm). […]
Structures can show the parent of a compound that is named as a salt.
READOUT_LABEL: inhibition at 10 µM (%)

>  <COMPOUND>
Nc1cccc2c1C(=O)N(c1cc(C(=O)N3CCC(N4CCOCC4)CC3)ccc1/C=C/c1n[nH]c3ccccc13)C2=O [Compound 317]

>  <TARGET_SYSTEM>
IGF-1R (Homo sapiens)

>  <READOUT_LABEL>
inhibition at 10 µM

>  <VAL>
103

$$$$
>  <COMPOUND>
Cc1ccsc1C(=O)Nc1cc(CN2CC[C@@H](O)C2)ccc1/C=C/c1n[nH]c2ccccc12 [Compound 330]

>  <TARGET_SYSTEM>
IGF-1R (Homo sapiens)

>  <READOUT_LABEL>
inhibition at 10 µM

>  <VAL>
102

$$$$
>  <COMPOUND>
CC(=O)N1CCN(Cc2ccc(/C=C/c3n[nH]c4ccccc34)c(NC(=O)c3sccc3C)c2)CC1 [Compound 269]

>  <TARGET_SYSTEM>
IGF-1R (Homo sapiens)

>  <READOUT_LABEL>
inhibition at 10 µM

>  <VAL>
101

$$$$
>  <COMPOUND>
COCCCN1CCN(Cc2ccc(/C=C/c3n[nH]c4ccccc34)c(NC(=O)c3sccc3C)c2)CC1 [Compound 304]

>  <TARGET_SYSTEM>
IGF-1R (Homo sapiens)

>  <READOUT_LABEL>
inhibition at 10 µM

>  <VAL>
102

$$$$
>  <COMPOUND>
CN(CCO)c1ccc(/C=C/c2n[nH]c3ccccc23)c(NC(=O)c2cccn2C)c1 [Compound 305]

>  <TARGET_SYSTEM>
IGF-1R (Homo sapiens)

>  <READOUT_LABEL>
inhibition at 10 µM

>  <VAL>
100

$$$$
>  <COMPOUND>
Cc1ccsc1C(=O)Nc1cc(C(=O)N2CCN(C=O)CC2)ccc1/C=C/c1n[nH]c2ccccc12 [Compound 218, hydrochloride]

>  <TARGET_SYSTEM>
IGF-1R (Homo sapiens)

>  <READOUT_LABEL>
inhibition at 10 µM

>  <VAL>
98.6

$$$$
>  <COMPOUND>
O=C(Nc1ccccc1/C=C/c1n[nH]c2ccccc12)c1cc2ccccc2s1 [Compound 46]

>  <TARGET_SYSTEM>
IGF-1R (Homo sapiens)

>  <READOUT_LABEL>
inhibition at 10 µM

>  <VAL>
97.8

$$$$

====

Some compounds, each annotated with its measured inhibition at 10 µM.
biological target: IGF-1R (Homo sapiens); construct: purchased Upstate Co. 14-465; experiment: IGF-1R inhibitory activity (kinase reaction, time-resolved fluoroimmunoassay); assay type: biochemical; details: IGF-1R active recombinant enzyme, test compound 10 μmol/L
Counter-ions that a name gives are not always drawn.

>  <COMPOUND>
Nc1cccc2c1CN(c1cc(CN3CCN(CCO)CC3)ccc1/C=C/c1n[nH]c3ccccc13)C2=O

>  <UNIT_OF_MEASURE>
%

>  <inhibition at 10 µM>
105

$$$$
>  <COMPOUND>
CN(C)C(=O)c1nc(-c2ccccc2/C=C/c2n[nH]c3ccccc23)no1

>  <UNIT_OF_MEASURE>
%

>  <inhibition at 10 µM>
100

$$$$
>  <COMPOUND>
O=S(=O)(Nc1ccccc1/C=C/c1n[nH]c2ccccc12)c1ccccc1

>  <UNIT_OF_MEASURE>
%

>  <inhibition at 10 µM>
59.2

$$$$
>  <COMPOUND>
Cc1ccsc1C(=O)Nc1ccc(N2CCC(S(C)(=O)=O)CC2)cc1/C=C/c1n[nH]c2ccccc12 [Compound 227, hydrochloride]

>  <UNIT_OF_MEASURE>
%

>  <inhibition at 10 µM>
98.9

$$$$
>  <COMPOUND>
Cc1ccsc1C(=O)Nc1cc(CN2CCN(C)CC2)ccc1/C=C/c1n[nH]c2ccccc12

>  <UNIT_OF_MEASURE>
%

>  <inhibition at 10 µM>
102

$$$$
>  <COMPOUND>
O=C1c2ccccc2C(=O)N1c1cc(Cl)ccc1/C=C/c1n[nH]c2ccccc12

>  <UNIT_OF_MEASURE>
%

>  <inhibition at 10 µM>
100

$$$$
>  <COMPOUND>
O=C(Nc1ccccc1/C=C/c1n[nH]c2ccccc12)c1ccc(CN2CCOCC2)cc1

>  <UNIT_OF_MEASURE>
%

>  <inhibition at 10 µM>
96.6

$$$$
>  <COMPOUND>
O=C(Nc1ccccc1/C=C/c1n[nH]c2ccccc12)c1ccccn1

>  <UNIT_OF_MEASURE>
%

>  <inhibition at 10 µM>
96.1

$$$$
>  <COMPOUND>
CCN(CC)CCN(CCO)C(=O)c1ccc(/C=C/c2n[nH]c3ccccc23)c(NC(=O)c2sccc2C)c1

>  <UNIT_OF_MEASURE>
%

>  <inhibition at 10 µM>
100

$$$$
>  <COMPOUND>
COc1cscc1C(=O)Nc1ccccc1/C=C/c1n[nH]c2ccccc12

>  <UNIT_OF_MEASURE>
%

>  <inhibition at 10 µM>
98.9

$$$$
>  <COMPOUND>
O=[N+]([O-])c1ccccc1/C=C/c1n[nH]c2ccccc12

>  <UNIT_OF_MEASURE>
%

>  <inhibition at 10 µM>
71.2

$$$$
>  <COMPOUND>
COc1c(OCCN2CCOCC2)ccc(/C=C/c2n[nH]c3ccccc23)c1NC(=O)c1sccc1C

>  <UNIT_OF_MEASURE>
%

>  <inhibition at 10 µM>
103

$$$$
>  <COMPOUND>
C(=C\c1n[nH]c2ccccc12)/c1ccccc1Nc1ncccn1

>  <UNIT_OF_MEASURE>
%

>  <inhibition at 10 µM>
100

$$$$
>  <COMPOUND>
O=C(Nc1ccccc1/C=C/c1n[nH]c2ccccc12)c1cc2ccccc2o1

>  <UNIT_OF_MEASURE>
%

>  <inhibition at 10 µM>
103

$$$$
>  <COMPOUND>
Nc1cccc2c1CN(c1cc(C(=O)N3CCOCC3)ccc1/C=C/c1n[nH]c3ccccc13)C2=O

>  <UNIT_OF_MEASURE>
%

>  <inhibition at 10 µM>
102

$$$$
>  <COMPOUND>
Nc1cccc2c1C(=O)N(c1cc(CN3CCN(CCCO)CC3)ccc1/C=C/c1n[nH]c3ccccc13)C2=O

>  <UNIT_OF_MEASURE>
%

>  <inhibition at 10 µM>
100

$$$$
